Source listed as ChEMBL document CHEMBL1759882.

target: Cyclin-dependent kinase 2 (Homo sapiens, UniProt P24941)
propertyMeasured: pIC50
The scale used: pIC50 is minus the common logarithm of the concentration in molar units.

For the molecule `Nc1nc(Nc2cccnc2)sc1C(=O)c1ccccc1F` , what pIC50 is on record?
7.60

----------
molecular target: Cyclin-dependent kinase 5/CDK5 activator 1 (Homo sapiens, UniProt Q00535)
Sequence (Q00535 whole entry): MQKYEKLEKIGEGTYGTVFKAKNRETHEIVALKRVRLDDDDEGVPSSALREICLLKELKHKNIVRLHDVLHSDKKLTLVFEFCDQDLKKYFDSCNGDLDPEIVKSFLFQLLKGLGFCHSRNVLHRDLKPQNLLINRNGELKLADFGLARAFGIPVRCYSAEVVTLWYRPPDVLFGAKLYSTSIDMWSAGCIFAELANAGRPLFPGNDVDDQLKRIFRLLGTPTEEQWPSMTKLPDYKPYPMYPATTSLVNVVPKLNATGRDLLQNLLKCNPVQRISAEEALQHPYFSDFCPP
Sequence (Q15078 whole entry, further chain): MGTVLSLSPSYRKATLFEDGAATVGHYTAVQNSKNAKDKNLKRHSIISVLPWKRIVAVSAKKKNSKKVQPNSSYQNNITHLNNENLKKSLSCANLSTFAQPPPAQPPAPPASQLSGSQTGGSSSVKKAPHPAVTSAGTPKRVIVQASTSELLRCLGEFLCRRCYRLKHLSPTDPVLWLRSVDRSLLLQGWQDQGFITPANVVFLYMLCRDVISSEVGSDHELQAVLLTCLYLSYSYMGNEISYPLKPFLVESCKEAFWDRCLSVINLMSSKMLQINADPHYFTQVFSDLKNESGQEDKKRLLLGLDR
Hi! Could you tag entries with IC50 below 700 nM as TRUE, and those at or above as FALSE? Much appreciated.

# TODO verify IC50 < 700 nM strictly for this molecule: `CNc1nc(Nc2cccnc2)sc1C(=O)c1ccccc1F`
FALSE

# TODO verify IC50 < 700 nM strictly for this molecule: `Nc1nc(Nc2ccncc2)sc1C(=O)c1ccc(F)cc1`
TRUE

# TODO verify IC50 < 700 nM strictly for this molecule: `COc1cccc(C(=O)c2sc(Nc3ccccn3)nc2N)c1`
TRUE

# TODO verify IC50 < 700 nM strictly for this molecule: `Nc1nc(Nc2cccnc2)sc1C(=O)c1ccncc1`
FALSE

# TODO verify IC50 < 700 nM strictly for this molecule: `Nc1nc(Nc2ccccn2)sc1C(=O)c1ccccc1F`
TRUE

# TODO verify IC50 < 700 nM strictly for this molecule: `COc1ccccc1C(=O)c1sc(Nc2ccncc2)nc1N`
TRUE

# TODO verify IC50 < 700 nM strictly for this molecule: `Nc1cccc(Nc2nc(N)c(C(=O)c3cccc(F)c3)s2)c1`
TRUE

# TODO verify IC50 < 700 nM strictly for this molecule: `CN(C)c1ccc(Nc2nc(N)c(C(=O)c3cccc(F)c3)s2)cc1`
TRUE

# TODO verify IC50 < 700 nM strictly for this molecule: `COc1cccc(C(=O)c2sc(Nc3cccnc3)nc2N)c1`
TRUE

# TODO verify IC50 < 700 nM strictly for this molecule: `COc1ccccc1C(=O)c1sc(Nc2cccnc2)nc1N`
TRUE

# TODO verify IC50 < 700 nM strictly for this molecule: `Nc1nc(Nc2ccncc2)sc1C(=O)c1cccc(F)c1`
TRUE

# TODO verify IC50 < 700 nM strictly for this molecule: `Nc1nc(Nc2ccncc2)sc1C(=O)c1ccccc1F`
TRUE

# TODO verify IC50 < 700 nM strictly for this molecule: `Nc1nc(Nc2cccnc2)sc1C(=O)c1cccnc1`
TRUE

# TODO verify IC50 < 700 nM strictly for this molecule: `COc1cccc(C(=O)c2sc(Nc3ccncc3)nc2N)c1`
TRUE

# TODO verify IC50 < 700 nM strictly for this molecule: `CNc1cccc(Nc2nc(N)c(C(=O)c3cccc(F)c3)s2)c1`
TRUE

# TODO verify IC50 < 700 nM strictly for this molecule: `Nc1nc(Nc2cccnc2)sc1C(=O)c1cccc([N+](=O)[O-])c1`
TRUE

# TODO verify IC50 < 700 nM strictly for this molecule: `Nc1nc(Nc2cccnc2)sc1C(=O)c1ccccc1F`
TRUE

# TODO verify IC50 < 700 nM strictly for this molecule: `Nc1nc(Nc2cccnc2)sc1C(=O)c1ccccn1`
FALSE

# TODO verify IC50 < 700 nM strictly for this molecule: `Nc1nc(NC2CCNCC2)sc1C(=O)c1cccc(F)c1`
FALSE

# TODO verify IC50 < 700 nM strictly for this molecule: `Nc1nc(Nc2cccnc2)sc1C(=O)c1ccc(F)cc1`
FALSE

# TODO verify IC50 < 700 nM strictly for this molecule: `COc1ccc(C(=O)c2sc(Nc3cccnc3)nc2N)cc1`
FALSE

# TODO verify IC50 < 700 nM strictly for this molecule: `Nc1nc(Nc2ccccn2)sc1C(=O)c1ccc(F)cc1`
FALSE

# TODO verify IC50 < 700 nM strictly for this molecule: `COc1ccc(C(=O)c2sc(Nc3ccccn3)nc2N)cc1`
FALSE

# TODO verify IC50 < 700 nM strictly for this molecule: `COc1ccc(C(=O)c2sc(Nc3ccncc3)nc2N)cc1`
TRUE
